The measured values listed here are drawn from ChEMBL document CHEMBL5120976.

Assay: Intrinsic clearance in human hepatocytes assessed per 10^6 cells
Format: ADME, cell-based, Hepatocyte
Experimental setup: read-out: CLH
Measured endpoint: hepatocyte CLint (µL/min/1e6 cells)

O=C(O)/C=C/C(=O)O.[2H]C([2H])([2H])N(C([2H])([2H])[2H])C([2H])([2H])Cc1c[nH]c2ccccc12
9.3

----------
Assay: Half life in human hepatocytes
Assay type: ADME, cell-based, Hepatocyte
Measured endpoint: half-life (h)

O=C(O)/C=C/C(=O)O.[2H]C([2H])([2H])N(C([2H])([2H])[2H])C([2H])([2H])Cc1c[nH]c2ccccc12
3.45
